# System: Pseudomonas aeruginosa
# test details: Inhibition of protease in logarithmic growth phase Pseudomonas aeruginosa PAO1 assessed as inhibition rate at 102.4 microg/ml measured after 32 hrs
# details: dose 102.4 µg/ml
Calls of active or inactive are those of the source. The rule behind the calls is not given here.
property label: inhibition

Solved entries (count: 10):
INSERT INTO results (smiles_structure, property_label, experimental_result) VALUES
  ('O=C(CCCOc1ccc(F)cc1)NNc1nc2ccccc2o1', 'inhibition', '30%'),
  ('Cc1ccc(C(=O)NNc2nc3ccccc3s2)cc1', 'inhibition', '> 20%'),
  ('Cc1cccc2sc(NNC(=O)CCCCOc3ccc(F)cc3)nc12', 'inhibition', '> 20%'),
  ('Cn1/c(=N/NC(=O)c2ccccc2F)sc2ccccc21', 'inhibition', '> 20%'),
  ('COc1ccc(OCCCC(=O)NNc2nc3ccccc3o2)cc1', 'inhibition', '30%'),
  ('O=C(NNc1nc2ccccc2s1)c1ccccc1F', 'inhibition', '> 20%'),
  ('O=C(CCCOc1cccc(F)c1)NNc1nc2ccccc2o1', 'inhibition', '30%'),
  ('O=C(CCCOc1cccc(C(F)(F)F)c1)NNc1nc2ccccc2o1', 'inhibition', '30%'),
  ('O=C(COc1ccc(F)cc1)NNc1nc2ccccc2o1', 'inhibition', '10%'),
  ('Cc1ccc(OCC(=O)NNc2nc3ccccc3o2)cc1', 'inhibition', '13.9%');

Any idea what inhibition was measured for CCCCCCCC(=O)N/N=c1\sc2ccccc2n1C ?
> 20%

Give its inhibition value. Item: Clc1ccc(/C=N/Nc2nc3ccccc3o2)cc1
21.4%

Given O=C(CCCCOc1cccc(F)c1)NNc1nc2ccccc2o1 , state its recorded inhibition.
inactive
